# TEST DETAILS: Cytotoxicity activity against human HepG2 cells assessed by CellTiter-Glo luminescent cell viability assay.
# Type: toxicity, cell-based
# Parameters: assay stage confirmatory assay, source tissue liver
# REPORTED CONDITIONS: HepG2 cells, read-out: IC50 relative
Activity calls are given as the source filed them. The rule behind the calls is not given here.
Output constraint: value belongs to T for active, F for inactive

### Prompt For Cc1cccc(C(=O)Nc2nc(-c3nccn3C)cs2)c1 , what call appears in the results of this test?
### Response T

### Prompt How about this compound: Cc1ncc(-c2ccnc(Nc3ccc(S(C)(=O)=O)cc3)n2)n1C(C)C
### Response T

### Prompt How about this compound: Cc1cccc(C(=O)Nc2nc3ccccc3[nH]2)n1
### Response T

### Prompt How about this compound: Cc1cc(Br)cc(C)c1OCCCCN(C)C
### Response T

### Prompt How about this compound: CCOc1ccccc1NC(=O)c1cnc2sc(N3CCOCC3)nn2c1=O
### Response F

### Prompt How about this compound: Fc1ccc(C(CCNC[C@@H]2[C@H]3CNC[C@@H]23)c2ccco2)cc1 (stereo not given in full)
### Response T

### Prompt How about this compound: Cc1cc(Nc2nc(N[C@@H](C)c3ccc(F)cc3)c(C#N)cc2F)n[nH]1
### Response T

### Prompt How about this compound: Nc1ncc(-c2ccnc(Nc3ccncc3)n2)c(CC2CC2)n1
### Response T

### Prompt How about this compound: Nc1ncc(-c2cnn(CCO)c2)c2scc(-c3ccc(NC(=O)Nc4cccc(F)c4)cc3)c12
### Response T

### Prompt How about this compound: CN(C)C1CCN(C(=O)c2ccc(NC(=O)Nc3ccc(-c4nc(N5CCOCC5)nc(N5CCOCC5)n4)cc3)cc2)CC1
### Response T

* * *

# TEST DETAILS: Cytotoxicity activity against human HepG2 cells assessed by CellTiter-Glo luminescent cell viability assay.
# Format: toxicity, cell-based
# Design: assay stage confirmatory assay, source tissue liver
# REPORTED CONDITIONS: HepG2 cells, read-out: IC50 relative
The source made the active and inactive calls. How the calls were made is not given here.
Output constraint: value belongs to y = active, n = inactive

### Prompt For Cc1cc(SCC#N)n2ncc(-c3ccccc3)c2n1 , what call appears in the results of this test?
### Response y

### Prompt How about this compound: NC(=O)c1cnc(NC(=O)c2cccc(S(=O)(=O)N3CCN(c4ccccc4)CC3)c2)s1
### Response n

### Prompt How about this compound: O=C(Nc1nccs1)c1cccc(S(=O)(=O)N2CCN(c3ccc(F)cc3)CC2)c1
### Response y

### Prompt How about this compound: CN(C)c1nc2c(Br)c(Br)c(Br)c(Br)c2[nH]1
### Response n

### Prompt How about this compound: CCN1/C(=C/C(C)=C/c2sc3ccccc3[n+]2CC)Sc2ccccc21
### Response y

### Prompt How about this compound: COc1cc2c(O)c3c(c(-c4ccc5c(c4)OCO5)c2cc1OC)C(=O)OC3 [DIPHYLLIN]
### Response y

### Prompt How about this compound: CSc1ccc2c(c1)C(N1CCN(C)CC1)Cc1ccccc1S2 (stereo not given) [METITEPINE]
### Response y

### Prompt How about this compound: Cc1cc(C)cc(-n2ncc3c(OCC(=O)N4CCN(C(=O)c5ccco5)CC4)ncnc32)c1
### Response y

### Prompt How about this compound: COC[C@H](NC(=O)c1cnc(C)s1)C(=O)N[C@@H](COC)C(=O)N[C@@H](Cc1ccccc1)C(=O)[C@@]1(C)CO1 [OPROZOMIB]
### Response y

### Prompt How about this compound: O=C1NCCSc2c1sc1ccc(O)cc21
### Response y

### Prompt How about this compound: CNc1nc(Nc2cccc(NC(C)=O)c2)nc2ccccc12
### Response y

### Prompt How about this compound: CC(C)(C)NC(=O)NC(=O)CNc1ccccc1C(=O)Nc1ccc(F)cc1
### Response n

### Prompt How about this compound: C=CCn1c(=O)c2cnc(Nc3ccc(N4CCN(C)CC4)cc3)nc2n1-c1cccc(C(C)(C)O)n1 [ADAVOSERTIB]
### Response y

### Prompt How about this compound: COc1ccc(Nc2nccc(-c3cccnc3)n2)cc1
### Response y

### Prompt How about this compound: COc1ncccc1-c1csc(-c2ccoc2)n1
### Response y

### Prompt How about this compound: Cc1ccc2ncc(C(=O)Nc3ccc(Cl)cc3O)c(=O)n2c1
### Response n

### Prompt How about this compound: CNC(=O)[C@@H](c1ccccc1)N1CCc2cc(OC)c(OC)cc2[C@@H]1CCc1ccc(C(F)(F)F)cc1 [ALMOREXANT]
### Response n

### Prompt How about this compound: CN(C)C[C@@H]1CCn2cc(c3ccccc32)C2=C(C(=O)NC2=O)c2cn(c3ccccc23)CCO1
### Response y

### Prompt How about this compound: O=C(Nc1ccc([N+](=O)[O-])cc1O)Nc1ccccc1Br
### Response y

### Prompt How about this compound: CCCc1cc2c(N3CCN(C4=NCC(C)(C)S4)CC3)ncnc2s1
### Response y
